Ki overview
Target: human NEP (Homo sapiens, UniProt P08473)
Construct: purchased R&D Systems, Minneapolis, Minn; 1182-ZN
Sequence (P08473 whole entry): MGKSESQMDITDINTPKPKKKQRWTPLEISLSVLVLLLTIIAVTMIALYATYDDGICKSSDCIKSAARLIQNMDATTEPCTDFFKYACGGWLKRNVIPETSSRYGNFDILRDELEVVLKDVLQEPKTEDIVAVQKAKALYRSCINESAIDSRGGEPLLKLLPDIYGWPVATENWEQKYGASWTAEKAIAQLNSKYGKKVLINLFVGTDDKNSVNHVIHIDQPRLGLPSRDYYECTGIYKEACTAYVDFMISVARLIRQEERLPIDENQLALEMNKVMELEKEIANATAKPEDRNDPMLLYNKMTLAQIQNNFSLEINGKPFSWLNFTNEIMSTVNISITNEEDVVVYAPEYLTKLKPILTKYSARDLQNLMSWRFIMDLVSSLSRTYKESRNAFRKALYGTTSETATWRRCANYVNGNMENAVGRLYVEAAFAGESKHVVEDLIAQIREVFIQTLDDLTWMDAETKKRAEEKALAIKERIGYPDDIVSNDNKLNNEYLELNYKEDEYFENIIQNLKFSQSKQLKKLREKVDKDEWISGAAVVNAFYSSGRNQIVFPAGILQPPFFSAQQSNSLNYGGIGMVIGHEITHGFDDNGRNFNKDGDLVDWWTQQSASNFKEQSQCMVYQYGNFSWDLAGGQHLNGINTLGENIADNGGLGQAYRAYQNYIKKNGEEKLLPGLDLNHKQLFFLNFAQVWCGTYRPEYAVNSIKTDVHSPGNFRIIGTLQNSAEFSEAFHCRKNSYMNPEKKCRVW
Assay: In vitro enzyme inhibition assay at human NEP (fluorogenic peptide substrate)
Type: biochemical
Settings: recombinant human NEP; substrate Mca-D-Arg-Arg-Leu-Dap-(Dnp)-OH 10 μM; 37° C.; values given as ranges; read-out: pKi values at human NEP (converted)
Protocol: The inhibitory activities of compounds at human and rat neprilysin (EC 3.4.24.11; NEP) and human angiotensin converting enzyme (ACE) were determined using in vitro assays as described below. Recombinant human NEP and recombinant human ACE were obtained commercially (R&D Systems, Minneapolis, Minn., catalog numbers 1182-ZN and 929-ZN, respectively). […]

Use the examples below as a reference point.
Sure, the documented Ki for "O=C(N[C@H](Cc1ccccc1Cl)[C@@H](O)C(=O)O)c1cc(-c2ccc(Cl)cc2Cl)n[nH]1" is 1.26 to 10 nM

Sure, the documented Ki for "O=C(N[C@H](Cc1ccccc1)[C@@H](O)C(=O)O)c1cc(C(=O)O)[nH]n1" is 12.6 to 100 nM

Sure, the documented Ki for "COc1ccc(Cn2nc(C(=O)N[C@H](Cc3ccccc3Cl)[C@@H](O)C(=O)O)cc2O)c(F)c1F" is 12.6 to 100 nM

Sure, the documented Ki for "COc1ccc(Cn2nc(C(=O)N[C@H](Cc3ccccc3Cl)[C@@H](O)C(=O)O)cc2C(=O)N(C)C)cc1" is 12.6 to 100 nM

Sure, the documented Ki for "COc1ccc(Cn2nc(C(=O)N[C@H](Cc3ccccc3Cl)[C@@H](O)C(=O)O)cc2C(=O)O)cc1F" is 1.26 to 10 nM

More entries:
Sure, the documented Ki for "COc1cccc(Cn2nc(C(=O)N[C@@H](CC(=O)O)Cc3ccccc3Cl)cc2C(=O)O)c1" is 12.6 to 100 nM

Sure, the documented Ki for "O=C(N[C@H](Cc1ccccc1C(F)(F)F)[C@@H](O)C(=O)O)c1cc(C(=O)O)[nH]n1" is 1.26 to 10 nM

Cited source: patent US8993752B2
